tested on: Plasmopora viticola; assay: whole plant or invertebrate; assay type: in vivo; conditions: 75 ppm; read-out: Disease Control Level, GDM
Reported pest or weed control at 75 ppm values follow for various molecules

{"sample-smiles": "CN(C)C(=S)Sc1cc(=O)n(Cc2ccccc2)s1", "system-name": "Plasmopora viticola", "pest or weed control at 75 ppm": "70 to 89%"}
{"sample-smiles": "Cn1sc(SC(=S)N2CCCC2)cc1=O", "system-name": "Plasmopora viticola", "pest or weed control at 75 ppm": "97 to 100%"}
{"sample-smiles": "CN(C)C(=S)Sc1cc(=O)n(CCc2ccccc2)s1", "system-name": "Plasmopora viticola", "pest or weed control at 75 ppm": "97 to 100%"}
{"sample-smiles": "CN(C)C(=S)Sc1cc(=O)n(C)s1", "system-name": "Plasmopora viticola", "pest or weed control at 75 ppm": "97 to 100%"}
